Every entry's value here was drawn from patent US20170247393A1.

# assayedTarget: human 5-HT3 serotonin receptors (Homo sapiens, UniProt P46098)
# Sequence (P46098 24-478): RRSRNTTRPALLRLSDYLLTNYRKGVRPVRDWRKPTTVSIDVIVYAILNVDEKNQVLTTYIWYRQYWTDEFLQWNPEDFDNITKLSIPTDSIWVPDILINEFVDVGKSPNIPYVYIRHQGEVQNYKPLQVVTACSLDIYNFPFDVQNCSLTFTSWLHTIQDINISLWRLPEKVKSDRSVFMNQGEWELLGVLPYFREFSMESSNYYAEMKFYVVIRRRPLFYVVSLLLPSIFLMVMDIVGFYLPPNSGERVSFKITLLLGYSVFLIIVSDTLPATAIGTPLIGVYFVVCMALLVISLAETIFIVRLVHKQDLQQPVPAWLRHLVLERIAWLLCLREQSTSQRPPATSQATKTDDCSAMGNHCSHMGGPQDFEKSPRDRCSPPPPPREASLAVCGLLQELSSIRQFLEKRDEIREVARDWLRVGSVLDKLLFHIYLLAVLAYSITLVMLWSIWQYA
# test: biochemical
# Type: binding
# measurementSetup: CHO cell membranes expressing human 5-HT3 receptors, [3H]BRL 43694, 120 min at room temperature; read-out: h-5HT3 Ki
pKi: −log10 of the molar value. Structures can show the parent of a compound that is named as a salt.
reportedProperty: pKi

• Cc1cc2cc(NC3=NO[C@@]4(C3)CN3CCC4CC3)ccc2s1 [(R)-43, hydrochloride] = 5.23
• Fc1sc2cc(NC3=NO[C@@]4(C3)CN3CCC4CC3)ccc2c1F [(R)-55, hydrochloride] = 5.66

* * *

Parameter Ki: see the listing below.
# assayedTarget: human 5-HT3 serotonin receptors (Homo sapiens, UniProt P46098)
# test: biochemical
# Assay type: binding
# measurementSetup: CHO cell membranes expressing human 5-HT3 receptors, [3H]BRL 43694, 120 min at room temperature; read-out: h-5HT3 Ki
Where a name gives a salt, the structure may show the parent alone.
reportedProperty: Ki

- c1cnc2ccc(NC3=NO[C@@]4(C3)CN3CCC4CC3)cc2c1 [(R)-80, hydrochloride]: > 10 µM
- Cc1csc2cc(NC3=NO[C@@]4(C3)CN3CCC4CC3)ccc12 [(R)-56, hydrochloride]: > 10 µM
- Clc1ccc2nc(NC3=NOC4(C3)CN3CCC4CC3)sc2c1 (single isomer, unassigned) [Compound 10-P2]: > 10 µM
- Fc1cc2cc(NC3=NO[C@@]4(C3)CN3CCC4CC3)ncc2cc1Cl [(R)-82, hydrochloride]: > 10 µM
- Clc1ccc2nc(NC3=NO[C@@]4(C3)CN3CCC4CC3)ncc2c1 [(R)-48, hydrochloride]: > 10 µM
- Clc1cccc2nc(NC3=NO[C@@]4(C3)CN3CCC4CC3)sc12 [(R)-11]: 0.305 µM
- Cc1cc2ccc(NC3=NO[C@@]4(C3)CN3CCC4CC3)cc2o1 [(R)-40, hydrochloride]: > 10 µM
- c1ccc2cc(NC3=NOC4(C3)CN3CCC4CC3)ncc2c1 (single isomer, unassigned) [Compound 2-P2]: 0.81 µM
- Fc1ccc2cc(NC3=NO[C@@]4(C3)CN3CCC4CC3)ncc2c1 [(R)-44, hydrochloride]: > 10 µM
- Clc1ccc2cc(NC3=NOC4(C3)CN3CCC4CC3)ncc2c1 (single isomer, unassigned) [Compound 19-P2]: > 10 µM
- Clc1cc2nc(NC3=NO[C@@]4(C3)CN3CCC4CC3)sc2cc1Cl [(R)-30, hydrochloride]: > 10 µM
- Cc1noc2cc(NC3=NO[C@@]4(C3)CN3CCC4CC3)ccc12 [(R)-66, hydrochloride]: 4.5 µM
- c1ccc2oc(NC3=NOC4(C3)CN3CCC4CC3)nc2c1 (single isomer, unassigned) [Compound 13-P1]: 2.4 µM
- Cc1ccc2nc(NC3=NO[C@@]4(C3)CN3CCC4CC3)ncc2c1 [(R)-70]: > 10 µM
- Cc1cc2cnc(NC3=NO[C@@]4(C3)CN3CCC4CC3)nc2s1 [(R)-52, hydrochloride]: > 10 µM
- Clc1ccc2cnc(NC3=NO[C@@]4(C3)CN3CCC4CC3)nc2c1 [(R)-49]: > 10 µM
- Fc1cc2cnc(NC3=NO[C@@]4(C3)CN3CCC4CC3)cc2cc1F [(R)-61, hydrochloride]: > 10 µM
- Cc1ccc2cnc(NC3=NO[C@@]4(C3)CN3CCC4CC3)cc2c1 [(R)-60, hydrochloride]: > 10 µM
- c1ccc2sc(NC3=NOC4(C3)CN3CCC4CC3)nc2c1 (single isomer, unassigned) [Compound 3-P2]: 0.35 µM
